B1: PAIP1 peptide 124-139 (Polyadenylate-binding protein-interacting protein 1), 16-mer library wild type / PABPC1 PABC (PABPC1 PABC domain, residues 544-623) (parent)
chain 1: LMSKLSVNAPEFYPSG
chain 2: PLTASMLASAPPQEQKQMLGERLFPLIQAMHPTLAGKITGMLLEIDNSELLHMLESPESLRSKVDEAVAVLQAHQAKEAA

- Variants of: B1
- test_protocol: proteomic peptide phage display deep mutational scan (ProP-PD DMS): M13 P8 16-mer library selected against immobilised GST-tagged bait for four days (rounds), NGS of the eluted pools per day and pseudo-replica
- cond: with PABPC1 PABC (PABPC1 PABC domain, residues 544-623); bait immobilised on MaxiSorp plates (10 µg), library pre-cleared on GST, 2 h binding at 4 °C, five washes; one round per day, days 1-4; value from days 2 and 3; keep out of graded; scale: average fractional NGS count over selection days 2 and 3
Class Fulfilled: screen value at least 0.0001. Class Not fulfilled: screen value below 0.0001.

variant_code | answer_label
chain 1 L5E | Fulfilled
chain 1 Y13F | Not fulfilled
chain 1 A9G | Not fulfilled
chain 1 L5S | Not fulfilled
chain 1 M2R | Fulfilled
chain 1 V7M | Not fulfilled
chain 1 P14H | Not fulfilled
chain 1 V7I | Fulfilled
chain 1 V7T | Fulfilled
chain 1 S15L | Fulfilled
chain 1 P14S | Fulfilled
chain 1 S3F | Not fulfilled
chain 1 P10V | Fulfilled
chain 1 L5V | Not fulfilled
chain 1 N8I | Not fulfilled
chain 1 G16L | Fulfilled
chain 1 P14F | Fulfilled
chain 1 S3R | Not fulfilled
chain 1 M2H | Fulfilled
chain 1 L5Y | Not fulfilled
chain 1 K4S | Fulfilled
chain 1 G16P | Fulfilled
chain 1 N8V | Fulfilled
chain 1 M2F | Not fulfilled
chain 1 A9T | Fulfilled
chain 1 L5I | Not fulfilled
chain 1 Y13P | Not fulfilled
chain 1 S3Y | Fulfilled
chain 1 V7K | Not fulfilled
chain 1 A9M | Not fulfilled
chain 1 A9V | Not fulfilled
chain 1 P10W | Not fulfilled
chain 1 N8K | Not fulfilled
chain 1 K4F | Fulfilled
chain 1 L5F | Not fulfilled
chain 1 M2D | Not fulfilled
chain 1 E11W | Not fulfilled
chain 1 F12D | Not fulfilled
chain 1 F12A | Not fulfilled
chain 1 E11L | Fulfilled
chain 1 M2Y | Not fulfilled
